# target: AMP-activated protein kinase, AMPK (Homo sapiens) (UniProt P54646+O43741+P54619+Q9UGJ0+Q9Y478+Q13131+Q9UGI9)
# assayText: AMP-dependent Kinase enzyme assay. An in vitro enzyme assay that detects ADP turnover that is directly proportional to AMPK activity. This uses naive AMPK that is activated during the assay with MK-8722
# Assay type: functional
# Parameters: scale not given: direction of the effect not stated beside the values
# protocolConditions: 30 µM
Consider the following compounds and their measured Percent Effect readings.
Give the value, in units of %, as a plain number.

# compound, measValue
rows = [
    ("CCCc1nc(CN2CCCC2Cn2cncn2)cs1 (stereo not given)", -5.8),
    ("CCc1nc(CN(Cc2cccs2)CC2CCCO2)no1 (stereo not given)", 2.16),
    ("CN(CCNC(=O)N1CCN(Cc2ccon2)CC1)C1CCCC1", 3.19),
    ("CN(Cc1ccon1)C(=O)C1CC(=O)N(Cc2ccncc2)C1 (stereo not given)", -1.61),
    ("CCC(CC)c1cc(CNC(=O)N2CCOCC2CC)on1 (stereo not given)", -0.644),
]

Query: Percent Effect; subject: `CC(=O)N1CCO[C@@H]2CN(C(=O)c3cc(C)oc3C)CC[C@@H]2C1`
-31.2

Which Percent Effect reading was recorded for the compound `O=C(CCc1ccccn1)N1CCN(C(=O)CC2CCCCC2)CC1` ?
-6.12

---

// reported Percent Effect for each item listed
# target: Chromo domain-containing protein 1 (Saccharomyces cerevisiae (strain ATCC 204508 / S288c) (Baker's yeast))
# assayText: ScCHD-1 Enzyme Inhibition Assay; also: in the data most compounds retested in dose-response had high values
# Format: functional
# Design: scale not given: direction of the effect not stated beside the values
# protocolConditions: 30 µM
API: value field is a number in %; no unit string.

Solved entries:
# compound, Percent Effect, %
records = [
    ("Cc1nn(-c2ccccc2)cc1C(=O)N1CCCC(n2cccn2)C1 (stereo unspecified)", -12.7),
    ("O=C1CC2(CCN(Cc3ccoc3)C2)CN1c1ccc2c(c1)OCO2 (stereo unspecified)", -0.51),
    ("Cc1oc(-c2ccsc2)nc1CC(=O)NCCS(C)(=O)=O", -2.55),
]

Would you mind telling me what Percent Effect value was observed for O=C(C1CCC1)N1CCCC1c1nnc2n1CCCCC2 (stereo unspecified) ?
2.32

I'd like to know its Percent Effect. The compound in question is `COc1cc(C(C)=O)ccc1OCC(=O)N(C)Cc1cnn(C)c1`
-10.6

# query: Percent Effect of entry `Cc1ncccc1O[C@H]1CCN(C(=O)c2cccs2)CC[C@@H]1O`
-0.631

Tell me the measured Percent Effect of CCc1nc(CN(Cc2cccs2)CC2CCCO2)no1 (stereo unspecified) , please.
3.56

Quick check: Percent Effect of `COCCNC(=O)c1cc2c(s1)CCN2C(=O)c1ccccc1` ?
6.46

I am curious: what Percent Effect value has been reported for `Cc1cc(N2CCC(CC(N)=O)CC2)nc(-c2ccncc2)n1` ?
-6.28

Which Percent Effect is reported for this compound? `CC(C)CN1C[C@H]2CCN(c3ncccn3)CC[C@H]2S1(=O)=O`
118

Look up Percent Effect for this compound: CC(=O)Nc1nc(CN2CCCC2Cn2cc(C)cn2)cs1 (stereo unspecified)
-28.6

Return reported Percent Effect; argument: `Cc1ccc(-c2nnc(SCC(=O)O)n2-c2ccc(C)cc2)cc1`
-3.8

Quick one: Percent Effect of Cc1[nH]ncc1C(=O)N1CCN(CC(O)C(C)(C)C)CC1 (stereo unspecified) ?
-6.95

So what does the record say about Percent Effect for CC(O)CN1CCC(CNCc2cccc(C(N)=O)c2)CC1 (stereo unspecified) ?
-10

If you can, please state the reported Percent Effect value of NC(=O)C1CN(C(=O)Nc2ccccc2-c2cccs2)CCO1 (stereo unspecified) .
-6.91

Can you look up the measured Percent Effect of CC(C)c1cc(NCC(C)N2CCCC2)n2nccc2n1 (stereo unspecified) for me?
-5.28
